Origin of measurements: patent US20240316038A1

Would you kindly list pEC50 for each of these molecules?
Target: APOL1 G2 (Homo sapiens, UniProt O14791, DEL388-389)
Sequence (O14791 with tags, fused parts or gaps DEL388-389): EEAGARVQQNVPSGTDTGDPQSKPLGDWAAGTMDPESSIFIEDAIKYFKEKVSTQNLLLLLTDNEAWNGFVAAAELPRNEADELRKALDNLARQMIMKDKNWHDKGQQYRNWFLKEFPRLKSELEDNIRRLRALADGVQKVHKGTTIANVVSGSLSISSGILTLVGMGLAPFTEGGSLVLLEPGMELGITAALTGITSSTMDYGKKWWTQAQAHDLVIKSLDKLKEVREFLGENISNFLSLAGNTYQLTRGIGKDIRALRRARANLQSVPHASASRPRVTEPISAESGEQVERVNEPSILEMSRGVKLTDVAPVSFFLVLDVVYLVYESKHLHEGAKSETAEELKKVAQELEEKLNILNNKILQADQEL
Assay: Rescue of HEK293 cell death caused by overexpression of APOL1 (CellTiter-Glo luminescence), HEK293/T-REx APOL1 G2/clone #2
Conditions: reversal of cell death caused by overexpression of APOL1; geometric mean of at least 2 assay runs, † = single assay run (technical duplicate)
# pEC50: negative log10 of molar concentration; output just the value

Ask: Item CS(=O)(=O)c1ccc(OC[C@H](O)CN[C@H]2C[C@H](c3cccc(Cl)c3)C2)cc1 has what recorded pEC50?
Result: 5.87

Ask: Which pEC50 is listed for C[C@@H]1CN(CC(O)c2cccc(Cl)c2)C[C@H]1COc1ccc(S(C)(=O)=O)cc1 (some centres unmarked) [Compound 123] ?
Result: 6.52

Ask: Can you look up the measured pEC50 of C[C@@H]1CN(CCc2cc(Cl)cc(C#N)c2)C[C@H]1COc1ccc(S(=O)(=O)CCO)cc1 for me?
Result: 7.44

Ask: Fill in: pEC50 of CN(c1ccc(OCC2CCCN(CCc3cccc(Cl)c3)C2)cc1)S(C)(=O)=O (single isomer, unassigned) [Compound 9] is ___
Result: 6.58
